Reported pIC50 values, 72 kDa type IV collagenase (Homo sapiens).
Here pIC50 is given on a logarithmic scale as minus log10 of the concentration in mol/L.

Value of pIC50 reported for the compound CC(C)C[C@H](N)C(=O)N[C@H](Cc1ccccc1)C(=O)NC[C@H](N)[C@@H](O)c1ccc(N)cc1 is 3.87

Quick note, pIC50 for CC(C)C[C@H](NC(=O)[C@@H](O)[C@H](N)Cc1ccccc1)C(=O)O landed at 3.92

Memo: N[C@H](Cc1ccccc1)C(=O)N[C@H](Cc1ccccc1)C(=O)NC[C@H](N)[C@@H](O)c1ccc([N+](=O)[O-])cc1 , reported pIC50: 4.36

Input N[C@@H](CS)C(=O)NC[C@H](N)[C@@H](O)c1ccc([N+](=O)[O-])cc1 . Output pIC50: 3.82

Kindly note the recorded pIC50 for N[C@@H](Cc1ccc(O)cc1)C(=O)NC[C@H](N)[C@@H](O)c1ccc(I)cc1 , which is 4.37

Short answer for CC(C)C[C@H](NC(=O)[C@@H](O)CN)C(=O)NC[C@H](N)[C@@H](O)c1ccc([N+](=O)[O-])cc1 : pIC50 was 4.08

In plain terms, Nc1ccc([C@H](O)[C@@H](N)CNC(=O)[C@@H](N)Cc2ccc(O)cc2)cc1 has a documented pIC50 of 3.95

Notebook: CC(C)C[C@H](NC(=O)[C@H](N)Cc1ccccc1)C(=O)NC[C@H](N)[C@@H](O)c1ccc([N+](=O)[O-])cc1 , pIC50 read as 3.98

In plain terms, Nc1ccc([C@H](O)[C@@H](N)CNC(=O)[C@H](N)Cc2ccccc2)cc1 has a documented pIC50 of 3.83

Lab book: pIC50 of N[C@H](Cc1ccccc1)C(=O)N[C@@H](CO)C(=O)NC[C@H](N)[C@@H](O)c1ccc([N+](=O)[O-])cc1 noted as 3.96

###

Assay: Selectivity ratio of IC50 for MMP-2 to IC50 for pig kidney microsomal APN
What Ratio IC50 was measured for each of the following?
Write the number on its own, no unit after it.

Ratio IC50 in this record for CC(C)C[C@H](NC(=O)[C@H](N)Cc1ccccc1)C(=O)NC[C@H](N)[C@@H](O)c1ccc([N+](=O)[O-])cc1 : 1.4

Field Ratio IC50 (entry NCCCC[C@H](N)C(=O)NC[C@H](N)[C@@H](O)c1ccc([N+](=O)[O-])cc1 ) reads 1.7

So, CC(C)C[C@H](NC(=O)[C@H](N)Cc1ccccc1)C(=O)NC[C@H](N)[C@@H](O)c1ccc(N)cc1 ? Its Ratio IC50 was 3

Measured Ratio IC50 of CC(C)C[C@H](N)C(=O)NC[C@H](N)[C@@H](O)c1ccc(I)cc1 : 3.9

Ratio IC50 in this record for NCCCC[C@H](N)C(=O)NC[C@H](N)[C@@H](O)c1ccc(N)cc1 : 1.2

Sample CC(C)C[C@H](NC(=O)[C@H](N)Cc1ccccc1)C(=O)NC[C@H](N)[C@@H](O)c1ccc(I)cc1 ; Ratio IC50 observed: 0.5

Entry under test: N[C@@H](Cc1ccc(O)cc1)C(=O)NC[C@H](N)[C@@H](O)c1ccc([N+](=O)[O-])cc1 . Its Ratio IC50 was 1.6

What the record says about Nc1ccc([C@H](O)[C@@H](N)CNC(=O)[C@@H](Cc2ccccc2)NC(=O)[C@H](N)Cc2ccccc2)cc1 : Ratio IC50 is 1.3

Ratio IC50 in this record for N[C@H](Cc1ccccc1)C(=O)N[C@@H](CO)C(=O)NC[C@H](N)[C@@H](O)c1ccc([N+](=O)[O-])cc1 : 5

Per the record, N[C@H](Cc1ccccc1)C(=O)NC[C@H](O)C(=O)NC[C@H](N)[C@@H](O)c1ccc([N+](=O)[O-])cc1 has Ratio IC50 of 6.1

The reported numbers originate from ChEMBL document CHEMBL1817563.
